TEST_PROTOCOL: Cmax in Wistar rat extracellular fluid at 3 mg/kg, sc by HPLC-MS/MS analysis
Assay type: ADME, organism-based
Design: dose 3 mg/kg, route subcutaneous
MEASUREMENT_TYPE: Cmax (nM)
Use nM as the unit, but write only the number.

Q. Field request: Cmax | item: Cc1nc2n(c(=O)c1CCN1CCC(c3noc4cc(F)ccc34)CC1)CCCC2
A. 20

----------
TEST_PROTOCOL: Cmax in Wistar rat extracellular fluid at 10 mg/kg, sc by HPLC-MS/MS analysis
Assay type: ADME, organism-based
Design: dose 10 mg/kg, route subcutaneous
Reported values of Cmax for individual entries
Use nM as the unit, but write only the number.

MOLECULE	MEASUREMENT_TYPE	MEASUREMENT_UNITS	MEASURED_NUMBER
Clc1ccc2c(c1)N=C(N1CCNCC1)c1ccccc1N2 [N-DESMETHYLCLOZAPINE]	Cmax	nM	2

Now for the molecule whose Cmax we want.
Q. Field request: Cmax | item: CN1CCN(C2=Nc3cc(Cl)ccc3Nc3ccccc32)CC1 [CLOZAPINE]
A. 6
